List of viability at 48 h, 10 µM values.
PROTOCOL_DESCRIPTION: Cytotoxicity, CellTiter Glo 2.0
Type: cell-based
CONDITION: human; panel B; HepG2; 10 µM; 48 h; ± SD; read-out: Cell line viability (%) after treatment with 10 µM compound
Protocol: Table S4. Cytotoxicity of gallinamides. Cytotoxicity of gallinamide A and compounds 1, 6, and 9 was tested with four human cell lines and expressed as % viability vs. untreated cells. […] Cytotoxicity was expressed as percent viability compared to untreated control cells; the standard deviation of the mean of quadruplicate readings is shown. […]
Answer format: numeric, % implied, no suffix.

1) CC[C@H](C)[C@@H](C(=O)O[C@@H](CC(C)C)C(=O)N[C@@H](CC(C)C)C(=O)N[C@@H](C)/C=C/C(=O)N1C(=O)C=C(OC)[C@@H]1C)N(C)C [gallinamide A] ... 98

Let us move to another entry and its viability at 48 h, 10 µM.
IN: Please give the measured viability at 48 h, 10 µM for this compound: COC1=CC(=O)N(C(=O)/C=C/[C@H](C)NC(=O)[C@H](CC(C)C)NC(=O)[C@H](CC(C)C)OC(=O)[C@H](Cc2ccccc2)N(C)C)[C@H]1Cc1ccccc1 [compound 6]
OUT: 14

###

Test system: recombinant SmCB1
PROTOCOL_DESCRIPTION: Kinetic inhibition assay with recombinant SmCB1 (k2nd)
Assay type: biochemical, S. mansoni
CONDITION: second-order rate constant (kinact/Ki); substrate Cbz–Phe–Arg–AMC; pH 5.5, 37 °C; mean ± SE
List of SmCB1 inhibition k2nd values.
Answer format: numeric, M^–1·s^–1 implied, no suffix.

IN: Please give the measured SmCB1 inhibition k2nd for this molecule: CCC(C)C(C(=O)OC(CC(C)C)C(=O)NC(CC(C)C)C(=O)NC(C)C=CC(=O)N1C(=O)C=C(OC)C1CC(C)C)N(C)C (stereo not drawn)
OUT: 3394

IN: Please give the measured SmCB1 inhibition k2nd for this molecule: COC1=CC(=O)N(C(=O)/C=C/[C@H](C)NC(=O)[C@H](CC(C)C)NC(=O)[C@H](CC(C)C)OC(=O)[C@H](Cc2ccccc2)N(C)C)[C@H]1Cc1ccccc1
OUT: 1930

IN: Please give the measured SmCB1 inhibition k2nd for this molecule: CCC(C)C(NC(C)=O)C(=O)NC(CC(C)C)C(=O)NC(CC(C)C)C(=O)NC(C)C=CC(=O)N1C(=O)C=C(OC)C1C (stereo not drawn)
OUT: 2902

IN: Please give the measured SmCB1 inhibition k2nd for this molecule: CCC(C)C(C(=O)OC(CC(C)C)C(=O)NC(CC(C)C)C(=O)NC(C=CC(=O)N1C(=O)C=C(OC)C1Cc1ccccc1)Cc1ccccc1)N(C)C (stereo not drawn) [compound 18]
OUT: 16.0

IN: Please give the measured SmCB1 inhibition k2nd for this molecule: COC1=CC(=O)N(C(=O)/C=C/[C@H](Cc2ccccc2)NC(=O)[C@H](CC(C)C)NC(=O)[C@H](CC(C)C)OC(=O)[C@H](Cc2ccccc2)N(C)C)[C@H]1Cc1ccccc1
OUT: 18.2

IN: Please give the measured SmCB1 inhibition k2nd for this molecule: COC1=CC(=O)N(C(=O)/C=C/[C@H](C)NC(=O)[C@H](CC(C)C)NC(=O)[C@H](CC(C)C)OC(=O)[C@H](C(C)C)N(C)C)[C@H]1C
OUT: 3334

###

List of viability at 48 h, 10 µM values.
PROTOCOL_DESCRIPTION: Cytotoxicity, CellTiter Glo 2.0
Format: cell-based
CONDITION: human; panel B; NHDF; 10 µM; 48 h; ± SD; read-out: Cell line viability (%) after treatment with 10 µM compound

1. CC[C@H](C)[C@@H](C(=O)O[C@@H](CC(C)C)C(=O)N[C@@H](CC(C)C)C(=O)N[C@@H](C)/C=C/C(=O)N1C(=O)C=C(OC)[C@@H]1C)N(C)C [gallinamide A] ... 89%

Let us move to another entry and its viability at 48 h, 10 µM.
IN: Please give the measured viability at 48 h, 10 µM for this molecule: COC1=CC(=O)N(C(=O)/C=C/[C@H](C)NC(=O)[C@H](CC(C)C)NC(=O)[C@H](CC(C)C)OC(=O)[C@H](Cc2ccccc2)N(C)C)[C@H]1Cc1ccccc1 [compound 6]
OUT: 35%

###

List of adult severity score values.
System: ex vivo adult mixed sex S. mansoni
PROTOCOL_DESCRIPTION: Phenotypic screen with ex vivo adult schistosomes
Format: cell-based
CONDITION: 6 h, 5 μM; scale 0 to 4

Known adult severity score results, listed for orientation:
1. CCC(C)C(C(=O)OC(CC(C)C)C(=O)NC(CC(C)C)C(=O)NC(C)C=CC(=O)N1C(=O)C=C(OC)C1CC(C)C)N(C)C (stereo not shown) [compound 1] ... 0
2. COC1=CC(=O)N(C(=O)/C=C/[C@H](C)NC(=O)[C@H](CC(C)C)NC(=O)[C@H](CC(C)C)OC(=O)[C@H](Cc2ccccc2)N(C)C)[C@H]1Cc1ccccc1 [compound 6] ... 1
3. CC[C@H](C)[C@@H](C(=O)O[C@@H](CC(C)C)C(=O)N[C@@H](CC(C)C)C(=O)N[C@@H](C)/C=C/C(=O)N1C(=O)C=C(OC)[C@@H]1C)N(C)C [gallinamide A] ... 0

IN: Please give the measured adult severity score for this compound: CCC(C)C(C(=O)OC(CC(C)C)C(=O)NC(CC(C)C)C(=O)NC(C)C=CC(=O)N1C(=O)C=C(OC)C1Cc1ccccc1)N(C)C (stereo not shown) [compound 9]
OUT: 1

###

System: S. mansoni newly transformed schistosomula (NTS)
PROTOCOL_DESCRIPTION: Phenotypic screen with newly transformed schistosomula (NTS)
Format: cell-based
CONDITION: 10 µM compound, 24 h
RECORDED_ENDPOINT: schistosomula phenotype descriptors

Known schistosomula phenotype descriptors results, listed for orientation:
1. COC1=CC(=O)N(C(=O)/C=C/[C@H](Cc2ccccc2)NC(=O)[C@H](CC(C)C)NC(=O)[C@H](CC(C)C)OC(=O)[C@H](Cc2ccccc2)N(C)C)[C@@H]1Cc1ccccc1 ... Dark, R
2. CCC(C)C(C(=O)OC(CC(C)C)C(=O)NC(CC(C)C)C(=O)NC(C)C=CC(=O)N1C(=O)C=C(OC)C1Cc1ccccc1)N(C)C (centres unmarked) ... Dark, R, S
3. COC1=CC(=O)N(C(=O)/C=C/[C@H](Cc2ccccc2)NC(=O)[C@H](CC(C)C)NC(=O)[C@H](CC(C)C)OC(=O)[C@H](Cc2ccccc2)N(C)C)[C@H]1C ... Dark, R, S
4. CCC(C)C(C(=O)OC(CC(C)C)C(=O)NC(CC(C)C)C(=O)NC(C=CC(=O)N1C(=O)C=C(OC)C1C)Cc1ccccc1)N(C)C (centres unmarked) ... Dark, R, S

Let us move to another entry and its schistosomula phenotype descriptors.
IN: Please give the measured schistosomula phenotype descriptors for this compound: CCC(C)C(C(=O)OC(CC(C)C)C(=O)NC(CC(C)C)C(=O)NC(C=CC(=O)N1C(=O)C=C(OC)C1Cc1ccccc1)Cc1ccccc1)N(C)C (centres unmarked)
OUT: Dark, R

###

Test system: S. mansoni newly transformed schistosomula (NTS)
PROTOCOL_DESCRIPTION: Phenotypic screen with newly transformed schistosomula (NTS)
Format: cell-based
CONDITION: 1 μM compound, 48 h; scale 0 to 4
RECORDED_ENDPOINT: schistosomula severity score
Number only, no unit.

Known schistosomula severity score results, listed for orientation:
1) COC1=CC(=O)N(C(=O)/C=C/[C@H](C)NC(=O)[C@H](CC(C)C)NC(=O)[C@H](CC(C)C)OC(=O)[C@H](C(C)C)N(C)C)[C@H]1C ... 1
2) CCC(C)C(C(=O)NC(CC(C)C)C(=O)NC(CC(C)C)C(=O)NC(C)C=CC(=O)N1C(=O)C=C(OC)C1C)N(C)C (stereo not drawn) ... 0
3) CCC(C)C(C(=O)OC(CC(C)C)C(=O)NC(CC(C)C)C(=O)NC(C=CC(=O)N1C(=O)C=C(OC)C1Cc1ccccc1)Cc1ccccc1)N(C)C (stereo not drawn) [compound 15] ... 3
4) CCC(C)C(C(=O)OC(CC(C)C)C(=O)NC(CC(C)C)C(=O)NC(C=CC(=O)N1C(=O)C=C(OC)C1CC(C)C)Cc1ccccc1)N(C)C (stereo not drawn) ... 2
5) CCC(C)C(C(=O)OC(CC(C)C)C(=O)NC(CC(C)C)C(=O)NC(C=CC(=O)N1C(=O)C=C(OC)C1Cc1ccccc1)Cc1ccccc1)N(C)C (stereo not drawn) [compound 7] ... 3
6) CCC(C)C(C(=O)OC(CC(C)C)C(=O)NC(CC(C)C)C(=O)NC(C)CCC(=O)N1C(=O)C=C(OC)C1C)N(C)C (stereo not drawn) ... 0

IN: Please give the measured schistosomula severity score for this compound: CCC(C)C(C(=O)OC(CC(C)C)C(=O)NC(CC(C)C)C(=O)NC(C=CC(=O)N1C(=O)C=C(OC)C1Cc1ccccc1)Cc1ccccc1)N(C)C (stereo not drawn) [compound 14]
OUT: 3

IN: Please give the measured schistosomula severity score for this compound: C#CCCCCOC1=CC(=O)N(C(=O)C=CC(C)NC(=O)C(CC(C)C)NC(=O)C(CC(C)C)OC(=O)C(C(C)CC)N(C)C)C1C (stereo not drawn)
OUT: 4

IN: Please give the measured schistosomula severity score for this compound: CCC(C)C(NC(C)=O)C(=O)NC(CC(C)C)C(=O)NC(CC(C)C)C(=O)NC(C)C=CC(=O)N1C(=O)C=C(OC)C1C (stereo not drawn)
OUT: 0

Reference for the values: paper PMC11184554
